Measured values drawn from ChEMBL document CHEMBL3638792 for this set.

- system-tested: UniProt:P52333
- Sequence (P52333 whole entry): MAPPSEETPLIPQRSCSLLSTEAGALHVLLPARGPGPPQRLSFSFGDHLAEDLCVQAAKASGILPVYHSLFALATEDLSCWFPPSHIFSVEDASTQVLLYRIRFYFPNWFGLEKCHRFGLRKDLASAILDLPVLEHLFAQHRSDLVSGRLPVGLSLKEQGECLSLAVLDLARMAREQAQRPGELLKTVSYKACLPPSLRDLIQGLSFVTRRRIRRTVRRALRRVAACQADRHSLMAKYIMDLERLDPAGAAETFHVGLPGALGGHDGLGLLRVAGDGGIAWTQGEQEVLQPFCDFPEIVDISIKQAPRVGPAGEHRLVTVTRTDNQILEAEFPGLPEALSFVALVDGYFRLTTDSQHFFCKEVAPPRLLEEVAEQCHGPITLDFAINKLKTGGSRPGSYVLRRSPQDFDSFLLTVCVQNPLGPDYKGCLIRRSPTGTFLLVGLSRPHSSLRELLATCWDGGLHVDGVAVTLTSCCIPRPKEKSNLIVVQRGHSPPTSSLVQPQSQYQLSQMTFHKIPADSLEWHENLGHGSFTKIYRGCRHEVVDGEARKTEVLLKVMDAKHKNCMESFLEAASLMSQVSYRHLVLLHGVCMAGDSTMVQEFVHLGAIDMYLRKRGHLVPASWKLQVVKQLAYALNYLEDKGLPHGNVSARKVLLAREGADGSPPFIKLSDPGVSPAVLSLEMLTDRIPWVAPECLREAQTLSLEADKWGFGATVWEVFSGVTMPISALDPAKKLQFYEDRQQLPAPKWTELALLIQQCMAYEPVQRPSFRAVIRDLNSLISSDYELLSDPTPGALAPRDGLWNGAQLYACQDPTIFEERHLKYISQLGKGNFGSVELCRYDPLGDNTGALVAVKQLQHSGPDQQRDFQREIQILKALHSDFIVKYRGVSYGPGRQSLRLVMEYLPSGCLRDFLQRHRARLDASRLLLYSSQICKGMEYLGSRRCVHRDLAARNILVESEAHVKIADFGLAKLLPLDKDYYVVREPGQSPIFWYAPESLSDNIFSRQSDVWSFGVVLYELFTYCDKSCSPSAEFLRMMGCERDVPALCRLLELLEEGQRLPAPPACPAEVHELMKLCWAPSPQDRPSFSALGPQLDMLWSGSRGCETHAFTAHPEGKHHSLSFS
property: IC50 (nM)
Give a bare numeral; the unit nM is implied.

Endpoint output: IC50 of CCc1cc(O)c(F)cc1-c1ccc2c(-c3nc4c([nH]3)CCN(Cc3ccc5ncccc5c3)C4)n[nH]c2c1 . Value? 1.4

* * *

Quick record of IC50 values for Tyrosine-protein kinase JAK1 (Homo sapiens).
Give a bare numeral; the unit nM is implied.

>>> observed_measurement("CCc1cc(O)c(F)cc1-c1ccc2c(-c3nc4c([nH]3)CCN(Cc3ccc5ncccc5c3)C4)n[nH]c2c1")
4.2

IC50 of CCc1cc(O)c(F)cc1-c1ccc2c(-c3nc4c([nH]3)CCN(C(=O)c3ccc(C#N)nc3)CC4)n[nH]c2c1 on Tyrosine-protein kinase JAK1 (Homo sapiens)? 3.4
